# TEST SYSTEM: T1, GST fusion of the EtAMA1-binding peptide of EtRON2 (Eimeria tenella, UniProt P08515 1-218 = GST)
# T1 construct: Expressed in E. coli, purified as the other antigens but without TEV cleavage, so a His tag and TEV site probably remain; also called GST-RON2 peptide
# T1 sequence (P08515 1-218, tags or fused parts left off): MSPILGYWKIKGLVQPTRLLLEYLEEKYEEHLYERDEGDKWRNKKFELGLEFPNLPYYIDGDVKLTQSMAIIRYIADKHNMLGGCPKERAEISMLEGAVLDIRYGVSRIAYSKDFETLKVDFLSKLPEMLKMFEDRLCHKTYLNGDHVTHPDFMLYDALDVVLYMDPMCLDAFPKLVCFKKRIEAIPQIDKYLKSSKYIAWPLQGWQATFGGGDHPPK
# PROCEDURE SUMMARY: phage ELISA, wells coated with GST-RON2 peptide
OBSERVABLE: binding relative to PBS-coated wells

Query: Recorded binding relative to PBS-coated wells for NBX16037 (VHH) VHH: QVQLQQSGGGLVQAGGSLRLSCAASGSIFSINVIGWYRQVPGKERELVAKSDRTTKYADSVKGRFTISRDNAKNTVDLQMNSLKPEDTAVYYCNAVVTSRTSQGLRSYAYWGQGTQVTVSS , please?
Response: ≥ 4 times

Query: Query NBX16038 (VHH) VHH: QVQLQQSGGGLVQSGGSLRLSCTATRSTISGYGGRWYRQAPGKQREFVALLSSGGMTRYADSVMGRFTISRDDIKNTLYLQMNTLKPEDTAVYYCNTFDGAWGQGTQVTVSS next
Response: ≥ 4 times

Query: Query NBX16036 (VHH) VHH: QVQLQESGGGLVQAGGSLRLSCVALGNIGWINDMGWYRQAPGKERELVARISSAEATNYADAVKGRFTISRDDAKNTVYLQMNSLKPEDTAVYSCHTRRWYDDGYDYDTWGQGTQVTVSS next
Response: ≥ 4 times
